Values from ChEMBL document CHEMBL2062487

Measured MIC of individual entries
# Tested on: Shigella dysenteriae
# measurement description: Antibacterial activity against Shigella dysenteriae by two fold broth dilution method
# Assay type: functional
Give a bare numeral; the unit µg/mL is implied.

1) O=C(O)c1cn(C2CC2)c2c(Cl)c(N3CCC(NCC(O)(Cn4cncn4)c4ccc(F)c(F)c4)C3)c(F)cc2c1=O (racemic) | 0.5

Measured MIC, Cc1ccc(C2(Cn3cncn3)CO2)cc1 (racemic) : 256

Measured MIC, Fc1ccc(C2(Cn3cncn3)CO2)cc1 (racemic) : 64

Measured MIC, O=C(O)c1cn(C2CC2)c2c(Cl)c(N3CCC(NCC(O)(Cn4cncn4)c4ccc(F)cc4)C3)c(F)cc2c1=O (racemic) : 0.5
